# Test system: T1, prefusion-stabilized RSV F ectodomain (DS-Cav1), subtype B (respiratory syncytial virus subtype B)
# T1 construct: extracellular domain; also called Prefusion subtype B
# Assay text: BLI, IgG on sensor
Could you please mark 1 for values of Kd below 0.3 nM and 0 for values at or above it?

binder="ADI-15561 (antibody, V domains shown, IgG; also called Antibody Number 132) VH: QVQLVQSGAEVKKPGSSVKVSCKASGGTFSSYAINWVRQAPGQGLEWMGGIIPAFGTTIYAQRFQDRVTITADKSTSTAYMELRSLRSEDTAVYYCARSPPFWSDYSRGWFDPWGQGTLVTVSS VL: ETTLTQSPSALSASVGDRVTITCRASQTISGYLNWYQQKPGKAPKLLIYAASSLQSGVPSRFSGSSAGTDFTLSISNLQPEDFATYYCQQSYTTPWTFGQGTKVEIK" assigned_category=0
binder="ADI-15599 (antibody, V domains shown, IgG; also called Antibody Number 165) VH: EVQLLESGGGLVQPGRSLRLSCSGSGFTFGDYALSWVRQAPGKGLEWVGFIRSKAYGGTTEYAASVKGRFTISRDDSKSIAYLQMNSLKTEDTAVYYCTMAVVVPGATDAFDIWGQGTMVTVSS VL: NFMLTQPHSVSESPGKTVTISCTRSSGSIASDYVQWFQQRPGSSPATVIYQDNQRPSGVPDRFSGSIDTSSNSASLTISGLKTEDEADYYCHSYDSSNPWVFGGGTKLTVL" assigned_category=1
binder="ADI-15577 (antibody, V domains shown, IgG) VH: QVQLVQSGAEVKKPGSSVKVSCKASGGTFGSYAISWVRQAPGQGLEWMGGTIPIFGTADHAQKFQGRVTITADKSTSTAYMELSSLRSEDTAVYYCARGVFRVGCSDTSCLKNYYGTDVWGQGTTVTVSS VL: QSVLIQPASVSGSPGQSITVSCTGSSGDVGAYKYVSWYQQHPGRGPKLIIYDVSARPSGISDRFSGSKSGNTASLTISGLQAEDEADYYCSSYSSSSTLVVFGGGTKVTVL" assigned_category=0
binder="ADI-15667 (antibody, V domains shown, IgG) VH: EVQLVESGGGLVQPGGSLRLSCAASGFTFSDFSMSWVRQAPGKGLEWVSLIKSSGYAYYADSVRGRFTISRDNSKNTLYLQMNSLRAEDTAIYYCAKDADFWSGAAYNGGYNFDSWGQGTLVTVSS VL: DIQMTQSPATLSVFPGDRATLSCRASQSVGSNLAWYQQKPGQAPRLLIFGASTRATGIPARFSGSGSGTEFTLTISSLQSEDFAVYYCQQYHNWPPLTFGGGTKVDIK" assigned_category=0
binder="ADI-15649 (antibody, V domains shown, IgG) VH: EVQLVESGGGLVKPGGSLRLSCAAPGFTIRSYTMYWVRQAPGKGLEWVASISSSSSYIHYGDSVKGRFTIARDNAKNSLYLQMNSLRAEDTAVYYCVRDHCTGGSCYLNGMDVWGQGTTVTVSS VL: QPVLTQPPSVSGAPGQRVTISCTGTSSNIGAGYDVHWYQQLPGTAPKLLIYGNNNRPSGVPDRFSGSKSGTSASLAITGLQAEDEADYYCQSYDSSLSGSVFGGGTKLTVL" assigned_category=0
